- Target Of Assay: Sodium- and chloride-dependent GABA transporter 2 (Mus musculus)
- Sequence (P31649 whole entry): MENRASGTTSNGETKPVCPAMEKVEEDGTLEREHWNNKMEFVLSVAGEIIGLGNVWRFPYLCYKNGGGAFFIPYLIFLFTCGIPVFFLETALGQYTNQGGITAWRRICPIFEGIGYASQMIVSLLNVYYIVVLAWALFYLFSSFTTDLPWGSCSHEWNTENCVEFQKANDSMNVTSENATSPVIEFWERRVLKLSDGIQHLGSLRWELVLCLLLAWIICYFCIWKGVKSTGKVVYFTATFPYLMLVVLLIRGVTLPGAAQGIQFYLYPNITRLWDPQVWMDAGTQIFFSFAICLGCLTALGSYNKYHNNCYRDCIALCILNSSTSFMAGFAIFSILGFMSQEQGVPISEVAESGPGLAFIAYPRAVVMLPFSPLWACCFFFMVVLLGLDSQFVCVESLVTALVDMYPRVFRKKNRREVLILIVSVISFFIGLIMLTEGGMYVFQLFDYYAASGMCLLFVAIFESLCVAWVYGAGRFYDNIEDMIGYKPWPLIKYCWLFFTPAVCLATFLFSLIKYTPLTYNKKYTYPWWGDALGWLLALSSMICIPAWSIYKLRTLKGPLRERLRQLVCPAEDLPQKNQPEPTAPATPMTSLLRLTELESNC
- Procedure Text: Inhibition of mouse GAT2 expressed in HEK293 cell line assessed as inhibition of [3H]GABA uptake measured after 35 mins by liquid scintillation method
Criterion: IC50 strictly less than 10 µM. Met: true (1). Not met: false (0).

INSERT INTO assay_data (compound, class_label) VALUES
  ('Cc1ccsc1C(=CCCN(C)C1CCc2onc(O)c2C1)c1sccc1C (stereo not given)', 'false (0)'),
  ('Cc1ccsc1C(=CCCN(C)C(CO)C(=O)NCc1ccccc1)c1sccc1C (stereo not given)', 'false (0)'),
  ('CC(=O)NCCC(C(=O)NCc1ccccc1Cl)N(C)CCC=C(c1sccc1C)c1sccc1C (stereo not given)', 'true (1)'),
  ('Cc1ccsc1C(=CCCN(C)C(CO)C(=O)NCc1ccc(Cl)cc1)c1sccc1C (stereo not given)', 'false (0)'),
  ('Cc1ccsc1C(=CCCN(C)C(CC(C)O)C(=O)NCc1ccccc1)c1sccc1C (stereo not given)', 'true (1)');

Lab note: IC50 threshold 10 µM. Does this compound come in strictly under it? Cc1ccc(CNC(=O)C(CO)N(C)CCC=C(c2sccc2C)c2sccc2C)cc1 (stereo not given)
false (0)

Threshold test, IC50 < 10 µM: Cc1ccc(CNC(=O)C(CCN)N(C)CCC=C(c2sccc2C)c2sccc2C)cc1 (stereo not given)
true (1)
